FYI, the data here is from paper PMC11149917.

Experiment: Mouse blood and tissue PK (LC/MS-MS)
Format: in vivo
Settings: mouse, whole blood, po, 1 mg/kg, NCI-H441 #1 (1 mg/kg), QD x 28 days
MEASURED QUANTITY: Cmax (µg/mL)

CCn1c(-c2cc(N3CCN(C)CC3)cnc2[C@H](C)OC)c2c3cc(ccc31)-c1csc(n1)C[C@H](NC(=O)[C@H]1C[C@@H]1C)C(=O)N1CCC[C@H](N1)C(=O)OCC(C)(C)C2	0.0792

---

Experiment: Mouse blood and tissue PK (LC/MS-MS)
Assay type: in vivo
Conditions: BALB/c nude, mouse, ear skin, oral, 3 mg/kg, sheet Ear Skin, model Capan-2, study Capan-2 #3_PHA 2023, 3 mg/kg, 2h; read-out: RMC-6236 (nM) Tumor
MEASURED QUANTITY: concentration at 2 h (nM)

CCn1c(-c2cc(N3CCN(C)CC3)cnc2[C@H](C)OC)c2c3cc(ccc31)-c1csc(n1)C[C@H](NC(=O)[C@H]1C[C@@H]1C)C(=O)N1CCC[C@H](N1)C(=O)OCC(C)(C)C2	175
